Target Or System: T1, oxidized (WT) protein kinase G Iα, Cys42 disulfide dimer (human, UniProt Q13976 1-671, intermolecular disulfide bond at Cys42 between the two subunits)
T1 construct: protein kinase G Iα (cGMP-dependent protein kinase 1, alpha isoform), human, untagged WT construct; also called PKGIα; source: FreeStyle 293-F cells, transfected, purified (8-AEA-cAMP agarose, size exclusion chromatography); incubated with 10 mM lipoic acid to obtain the disulfide dimer
T1 sequence (looked up): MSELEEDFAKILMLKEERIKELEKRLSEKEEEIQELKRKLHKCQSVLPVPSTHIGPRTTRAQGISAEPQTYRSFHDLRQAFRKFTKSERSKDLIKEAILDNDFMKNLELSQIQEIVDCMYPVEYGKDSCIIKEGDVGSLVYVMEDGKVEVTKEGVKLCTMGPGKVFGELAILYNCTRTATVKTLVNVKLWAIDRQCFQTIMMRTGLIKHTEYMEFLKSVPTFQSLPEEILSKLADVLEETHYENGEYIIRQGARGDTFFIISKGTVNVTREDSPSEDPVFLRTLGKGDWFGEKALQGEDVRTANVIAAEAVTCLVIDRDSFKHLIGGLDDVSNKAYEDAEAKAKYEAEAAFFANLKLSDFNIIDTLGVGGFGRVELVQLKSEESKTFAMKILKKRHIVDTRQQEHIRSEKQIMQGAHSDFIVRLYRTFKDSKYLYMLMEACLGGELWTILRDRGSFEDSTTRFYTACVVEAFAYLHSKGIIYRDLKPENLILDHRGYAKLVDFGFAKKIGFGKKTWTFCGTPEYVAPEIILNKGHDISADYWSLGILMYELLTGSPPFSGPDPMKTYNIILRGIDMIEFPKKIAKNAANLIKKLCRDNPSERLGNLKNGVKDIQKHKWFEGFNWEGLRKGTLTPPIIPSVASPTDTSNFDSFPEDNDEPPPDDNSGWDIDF
Test Method Notes: ITC; PLN (1–23) (700 μM) titrated into the cell containing WT disulfide PKGIα or the C42S mutant (70 μM); 25 °C; 50 mM sodium phosphate buffer pH 7.4, 100 mM NaCl; no cyclic nucleotide
Study Conditions: both partners purified
pKd: −log10 of the molar value. Where no end group is shown, it is not given here.
Metric Name: pKd

Request: Recorded pKd for Ac-MEKVQYLTRSAIRRASTIEMPQQ (peptide, UniProt P26678 1-23, looked up, cardiac phospholamban, human, residues 1-23 (N-terminal cytoplasmic domain); also called PLN_(1–23); PLN (1–23); source: synthetic peptide; bought: PeptideSynthetics (Peptide Protein Research Ltd, UK)) , please?
Result: ~5.15

The reported measurements were obtained from paper PMC5095173.
